Cited source: PubChem BioAssay (NCI)

assay: NCI Yeast Anticancer Drug Screen. Data for the cln2 rad14 strain (AID 165);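 note: 0% = growth equal to vehicle treated cultures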; conditions: S. cerevisiae cln2 rad14 strain, at 50.0 µM
The panel holds about 79,000 compounds, 15% with a hit somewhere; the sample as a whole holds those more often. Active and inactive are the calls of the source. Cut-off read from the data, not from the text of the source: active = growth inhibition above about 70%; inactive = the rest.
Bench note: report the call from active, inactive

Solved cases (4 shown):
COMPOUND	QUALITATIVE_LABEL
CCC[CH2][Sn]1([CH2]CCC)[O]CC[S]1	active
N#CC(C#N)=Cc1ccc2c(c1)OC(Cl)O2 (centres undefined)	inactive
ClCCN(CCCl)CCN1c2ccccc2Sc2ccc(Cl)cc21	active
COc1c(NC(=O)CC(C)=O)[c]([Hg][O]C(C)=O)c(OC)c(Cl)[c]1[Hg][O]C(C)=O	active

**Query** What call does the record list for CS/C([S-])=N/N=C(C)C.CS/C([S-])=N/N=C(C)C.[Ni+2] ?
**Result** inactive

**Query** What call does the record list for [C-]#[O+].[C-]#[O+].[C-]#[O+].[Cl-].[Ru+2].c1ccc([PH+](CC[PH+](c2ccccc2)c2ccccc2)CC[PH+](c2ccccc2)c2ccccc2)cc1 ?
**Result** active

**Query** What call does the record list for O=C1C2CC(Cl)C(SSC3CC4C(=O)N(SC(Cl)(Cl)C(Cl)Cl)C(=O)C4CC3Cl)CC2C(=O)N1SC(Cl)(Cl)C(Cl)Cl (centres undefined) ?
**Result** active

**Query** What call does the record list for O=C(c1ccc(Br)cc1)C1C(c2ccccc2)N1C1CCCCC1 (centres undefined) ?
**Result** active

**Query** What call does the record list for CCOP(=O)(OCC)/C(C#N)=C/c1ccccc1Cl ?
**Result** inactive

----------
experiment: NCI Yeast Anticancer Drug Screen. Data for the rad50 strain (AID 155);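 note: 0% = growth of vehicle-only cultures of the same strain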; conditions: S. cerevisiae rad50 strain growth inhibition; at 5.0 µM (retest, dose inferred, filed as 0.5); hits give high values
Compounds without any hit were thinned out: in the full panel of roughly 79,000, 15% have a hit.
// reported growth inhibition for each item listed
# number only, unit % dropped from output

Below, each entry is followed by its recorded growth inhibition result.
COMPOUND	DATA_VALUE
CCCCCCC[CH2][Sn]([F])([F])[CH2]CCCCCCC	3
[Br][Sn]([CH]1CCCCC1)([CH]1CCCCC1)[CH]1CCCCC1	98
OC(c1ccc(Cl)cc1)C(Cl)(Cl)Cl (stereo not given)	6

Item: CCC1CC2CCC(O2)C(C)C(=O)OC(C)CC2CCC(O2)C(C)C(=O)OC(CC)CC2CCC(O2)C(C)C(=O)OC(C)CC2CCC(O2)C(C)C(=O)O1 (stereo not given) | growth inhibition: -7

Item: Nc1ccc(Cc2ccc(N)c(Cl)c2)cc1Cl | growth inhibition: -6

----------
// reported growth inhibition for each item listed
assay: NCI Yeast Anticancer Drug Screen. Data for the bub3 strain (AID 167); conditions: S. cerevisiae bub3 mutant strain, at 5.0 µM (retest, dose inferred, filed as 0.5), hits give high values
This is part of a sample that, as a whole, favours compounds with a hit. Of some 79,000 tested, about 15% had one in any assay.
# number only, unit % dropped from output

Below, each entry is followed by its recorded growth inhibition result.
MOLECULE	DATA_VALUE
O=C1C=C(Cl)C(=O)C=C1Cl	5
CC(CN1CCCCCCC1)C(C#N)(c1ccccc1)c1ccccc1 (stereo not given)	9
ClCCN(CCCl)c1ccc(C=NCCCCN=Cc2ccc(N(CCCl)CCCl)cc2)cc1	-10
CC(Br)CN(CC(C)Br)c1ccc2c(c1)Cc1ccccc1-2 (stereo not given)	-7
COc1c(NC(=O)CC(C)=O)[c]([Hg][O]C(C)=O)c(OC)c(Cl)[c]1[Hg][O]C(C)=O	62

We next turn to a different molecule, shown below.
Item: Cc1cccc2cc3ccccc3cc12 | growth inhibition: 68

----------
assay: NCI Yeast Anticancer Drug Screen. Data for the bub3 strain (AID 167); conditions: S. cerevisiae bub3 mutant strain, at 5.0 µM (retest, dose inferred, filed as 0.5), hits give high values
The panel holds about 79,000 compounds, 15% with a hit somewhere; the sample as a whole holds those more often.
MEASURED_PARAMETER: growth inhibition (%)
# number only, unit % dropped from output

Below, each entry is followed by its recorded growth inhibition result.
COMPOUND	growth inhibition / %
NC(N)=N/N=C1\C(=O)N(c2ccc(Cl)cc2)C(=O)C1C(=O)Nc1ccc(Cl)cc1 (configuration not stated)	8
CC1([CH2][Hg][I])CS(=O)(=O)CC(C)([CH2][Hg][I])O1 (configuration not stated)	100
N#CC(C#N)=Cc1ccc(C#N)cc1	-65

Item: CC(C)(C)CC(C)(C)c1ccc(O)cc1 | growth inhibition: -22

Item: CCC1(O)C(=O)OCc2c1cc(C)[nH]c2=O (configuration not stated) | growth inhibition: -75

Item: Cc1ccccc1NC(=O)CBr | growth inhibition: -38

Item: Cc1nc(Cl)c(CBr)c(Cl)n1 | growth inhibition: 54

----------
experiment: NCI Yeast Anticancer Drug Screen. Data for the CLN2oe strain (AID 163);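 note: 0% = growth of vehicle-only control cultures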; details: S. cerevisiae CLN2oe strain, at 11.0 µM, hits give high values
The panel holds about 79,000 compounds, 15% with a hit somewhere; the sample as a whole holds those more often.
// reported growth inhibition for each item listed
# number only, unit % dropped from output

MOLECULE	growth inhibition / %
O=C1c2ccccc2C(=O)C(Cl)C1Cl (stereo not drawn)	71
O=[N+]([O-])c1cc([As](Br)c2ccc(O)c([N+](=O)[O-])c2)ccc1O	93

Item: CC1CC(Br)C(=O)O1 (stereo not drawn) | growth inhibition: -13

Item: NCCc1ccc(OCc2ccccc2)c(OCc2ccccc2)c1 | growth inhibition: -5

Item: CSc1ccccc1[As](C)C | growth inhibition: 32

Item: Br[Se]c1ccccn1 | growth inhibition: 62

Item: O=C(COc1ccc(Cl)cc1Cl)NO | growth inhibition: 1

Item: O=C(NNC(=O)OCC(Cl)(Cl)Cl)OCC(Cl)(Cl)Cl | growth inhibition: -2

Item: CCCCCCCCCC[Se]C#N | growth inhibition: -4

Item: CC(C)CC(NC(=O)C(N)C(C)C)C(=O)NC(CCCCN)C(=O)Nc1ccc(N(CCCl)CCCl)cc1 (stereo not drawn) | growth inhibition: 6

Item: COc1cccc2c1C(=O)c1c(O)c3c(c(O)c1C2=O)C[C@@](O)(/C(C)=N\O)C[C@@H]3OC1CC(N)C(O)C(C)O1 (stereo partly drawn) | growth inhibition: 8

Item: O=C(O)C1C2C=CC(C2)C1c1ccccc1 (stereo not drawn) | growth inhibition: -4

Item: O=[N+]([O-])c1ccc(C=Cc2ccccc2)cc1.[C-]#[O+].[C-]#[O+].[C-]#[O+].[Cr] | growth inhibition: -16

Item: O=S(=O)(O)/C(=C\c1ccccc1)c1ccccc1 (tested in a mixture with another compound) | growth inhibition: -5

Item: C[N+]1(CCCl)CC[N+](C)(CCCl)CC1 (stereo not drawn) | growth inhibition: 3

Item: O=C(O)CCCc1cc(I)c(N(CCCl)CCCl)c(I)c1 | growth inhibition: -13

----------
assay: NCI Yeast Anticancer Drug Screen. Data for the rad18 strain (AID 177); details: S. cerevisiae rad18 mutant growth inhibition; at 100.0 µM
About 79,000 compounds went through this panel and 15% of them were active in at least one assay; those are over-represented in the sample as a whole. Active and inactive are the calls of the source. No stated cut-off is given here; in the data, active means growth inhibition above about 70%; inactive means the rest.
Bench note: report the call from active, inactive

Solved cases (8 shown):
MOLECULE	QUALITATIVE_LABEL
CC1(Cl)CC(C)(/C=C/Cl)C(Cl)CC1Cl (stereo unspecified)	inactive
Oc1c(Br)cc(Br)cc1Br	active
CC1=C2C(=C[C@@](C)(CO)[C@@H]2O)C(=O)[C@](C)(O)C12CC2	active
CC(C)(C)c1cc([N+](=O)[O-])cc([N+](=O)[O-])c1O	inactive
O=C1c2ccc3ccccc3c2CCC1N1CCCCC1 (stereo unspecified)	active
CCN(CCCl)c1cc(CN(C)C)cc(NC(=O)c2ccc(C(=O)Nc3cc(CN(C)C)cc(N(CC)CCCl)c3)cc2)c1	active
O=C1C=CC(=O)C1(Br)Br	active
O=[N+]([O-])c1cc(S(=O)(=O)F)ccc1Cl	active

**Query** What call does the record list for C[C@]12CC[C@H](O)CC1=CC[C@@H]1[C@@H]2CC[C@]2(C)C(=O)CC[C@@H]12 ?
**Result** active

**Query** What call does the record list for CCNCC(=O)O[C@]1(CC)C(=O)OCc2c1cc1n(c2=O)Cc2cc3ccccc3nc2-1 ?
**Result** inactive

**Query** What call does the record list for O=c1oc2ccccc2c(O)c1C(c1ccc2ccccc2c1)c1c(O)c2ccccc2oc1=O ?
**Result** active

----------
test: NCI Yeast Anticancer Drug Screen. Data for the mlh1 strain (AID 171);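 note: 0% = growth of vehicle-treated control cultures of the same strain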; conditions: S. cerevisiae mlh1 strain growth inhibition; at 3.7 µM; hits give high values
The panel holds about 79,000 compounds, 15% with a hit somewhere; the sample as a whole holds those more often.
// reported growth inhibition for each item listed
# number only, unit % dropped from output

COMPOUND	growth inhibition / %
C/C(=N\O)c1ccc2ccc3ccccc3c2c1	-3

Item: CC[C@@]1(O)C(=O)OCc2c1cc1n(c2=O)Cc2cc3ccccc3nc2-1 | growth inhibition: 35

Item: Cc1c(N)nc([C@H](CC(N)=O)NC[C@H](N)C(N)=O)nc1C(=O)N[C@H](C(=O)N[C@H](C)[C@@H](O)[C@H](C)C(=O)N[C@H](C(=O)NCCc1nc(-c2nc(C(=O)NCCC[S+](C)C)cs2)cs1)[C@@H](C)O)C(OC1OC(CO)C(O)C(O)C1OC1OC(CO)C(O)C(OC(N)=O)C1O)c1cnc[nH]1 (stereo not given in full) | growth inhibition: 4

Item: CCC1(OC(=O)CN)C(=O)OCc2c1cc1n(c2=O)Cc2cc3ccccc3nc2-1 (stereo not given) | growth inhibition: 15

Item: CCC(=O)OC1CCn2c1nc1c2C(=O)C(C)=C(N2CC2)C1=O (stereo not given) | growth inhibition: 24

Item: O=C(O)C1C2CCC(C2)C1c1ccccc1 (stereo not given) | growth inhibition: -2

Item: Cn1cnc(N)c1C(=N)[Se] | growth inhibition: -3

Item: COC(=O)C1=C(C(=O)OC)C2OC1c1cc3ccccc3cc12 | growth inhibition: 35

Item: C[CH2][Sn]([CH2]C)([O]S(C)(=O)=O)[O]S(C)(=O)=O | growth inhibition: -29

Item: O=[N+]([O-])c1ccc(-n2nc3ccc4c(no[n+]4[O-])c3[n+]2[O-])c([N+](=O)[O-])c1 | growth inhibition: -4

Item: CCOP(=O)(CC(C)P(=O)(OCC)OCC)OCC.C[CH2][Sn]([Cl])([Cl])[CH2]C (stereo not given) | growth inhibition: 2

Item: CCCCCCCCCCCCCCCCP(=O)(O)OP(=O)(O)OCC1OC(n2ccc(N)nc2=O)C(O)C1O (stereo not given) | growth inhibition: 0

Item: OCC(O)C(O)CO (stereo not given) (tested in a mixture with another compound) | growth inhibition: -1

Item: CC(C)(C)c1cc([N+](=O)[O-])cc([N+](=O)[O-])c1O | growth inhibition: -33
